System: IGROV1 ovarian
Experiment: NCI-60 one-dose screen, 48 h (100 = growth as untreated, 0 = no growth, -100 = all killed)
Conditions: 10 µM unless noted
Compounds without any hit were thinned out: in the full panel of roughly 83,000, 20% have a hit.
Readout Type: growth (%)
Give bare numbers, in %.

INSERT INTO results (molecule, readout_type, measurement) VALUES
  ('CC(C)C(C(=O)O)n1c(O)c(/C=C2/C=c3cc4c(cc3=NC2=O)OCO4)sc1=S (stereo not given)', 'growth', 109),
  ('COc1cc(-c2cc(-c3cccc(OCC(=O)O)c3)[nH]c(=O)c2C#N)cc(OC)c1OC', 'growth', 109),
  ('COc1ccc(C2(SCCNCc3cc(N(C)C)ccn3)c3ccccc3C=Cc3ccccc32)cc1', 'growth', 40.8),
  ('N/C(=N\c1nc2ccccc2s1)NC(=O)Nc1ccc(Cl)cc1Cl', 'growth', -68.5);

Kindly consider the entry below.
The recorded growth for O=C(/C=C/c1ccc(-c2ccccc2)cc1)c1nc2ccccc2n1Cc1ccc(F)cc1 is 55.7

----------
Tested on: LOX IMVI melanoma
Test: NCI-60 one-dose screen, 48 h
Details: 10 µM
Compounds without any hit were thinned out: in the full panel of roughly 83,000, 20% have a hit. Active and inactive are the calls of the source. Rule for the calls: active = growth percent below 10; inactive = the rest.
Returns: one label drawn from 1 (active), -1 (inactive)

Solved entries (count: 5):
INSERT INTO results (molecule, class_label) VALUES
  ('COc1ccc(N2N=C(c3ccc4c(c3)OCO4)CC2c2cccc(NC(=O)CCCNS(=O)(=O)c3ccc(F)cc3)c2)cc1 (stereo not drawn)', -1),
  ('CC(C)c1sc(NC(=O)c2cc(NC(=O)c3cc(NC(=O)c4nccn4C)cn3C)cn2C)nc1C(=O)NCCCN(C)C', -1),
  ('C=C1CC[C@@H]2[C@]3(C)COC(c4cn[nH]c4-c4ccc(Br)cc4)O[C@@H]3CC[C@@]2(C)[C@@H]1C/C=C1/C(=O)OCC1O (stereo partly drawn)', 1),
  ('CN(C)c1nc(NCCNS(=O)(=O)c2ccc(C(=O)/C=C/c3ccc(Cl)cc3)cc2)nc(Nc2ccc(F)cc2)n1', 1),
  ('Cc1nc(Nc2ncc(C(=O)Nc3c(C)cccc3Cl)s2)cc(N2CCN(CCCNC(=O)COc3ccc(C4CCC(=O)NC4=O)cc3)CC2)n1 (stereo not drawn)', 1);

GET /call?item= CN(C)c1nc(NCCNS(=O)(=O)c2ccc(C(=O)/C=C/c3ccc(C(F)(F)F)cc3)cc2)nc(Nc2ccc(F)cc2)n1 returns the recorded outcome of this test.
1

Check the results log: what was the call for CN1CCN(c2ccc3c(c2)nc(NNC(=O)c2ncccn2)c2cccn23)CC1 ?
1

Record request — test call for C#CCOc1cc(N(CC)CC)ccc1C(C(=O)NC(C)(C)C)N(C(=O)C1CCc2cc(F)ccc2O1)c1ccccc1Br (stereo not drawn)
-1

Hi, do you know how COc1cc(OC)cc(C(=O)Nc2cccc(-c3cn(-c4ccc(S(N)(=O)=O)cc4)nn3)c2)c1 came out in this test?
-1

Query: recorded result category for CN(C)CCCNC(=O)c1cc(NC(=O)c2cc(NC(=O)c3ccc(/C=C/c4ccccc4)cc3)cn2C)cn1C in this test
1

Hi, do you know how CCC(C)(C)c1ccc(OCCCCN2CCN(c3ccncc3)CC2)cc1 came out in this test?
1

For CCCCSc1nc(NCCc2c[nH]c3ccccc23)c(C#N)c(-c2ccc(F)cc2)n1 , which call appears in the assay record?
-1

Given Cc1occc1C(=O)NN1C(=O)/C(=C/C=C/c2ccc([N+](=O)[O-])o2)SC1=S , state the outcome it received in this test.
1
